system_name: Relaxin receptor 1 (Homo sapiens)
assay_remarks: qHTS Assay for Agonists of the Relaxin Receptor RXFP1: RXFP1 Hit Validation; further: nearly all actives have a fitted effect of over 65% in size; further: potency means the concentration at half of the fitted maximal effect;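 on activation: cAMP rise lowers the TR-FRET signal in lysed cells with PDE4 inhibitor present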
test_parameters: HEK293T-RXFP1 cAMP TR-FRET, 30 min; series mostly up to 115 µM
Inconclusive results are not listed. Activity calls are given as the source filed them. The call rests on the fitted dose curve; in most records, active means well fitted activation curve with a large enough effect; inconclusive means small, poorly fitted or top-dose-only effect; inactive means no such curve, though single readings can be large or run the other way.
measurement_label: Potency

Below are worked cases with known answers.
{"columns": ["compound", "Potency"],
 "data": [
  ["Cc1cc(NC(=O)CSc2ncnc3c2cnn3-c2cccc(Cl)c2)no1", "inactive"],
  ["O=C(CSc1ccc2nnc(-c3ccncc3)n2n1)NCC1CCCO1 (centres undefined)", "inactive"],
  ["CCN(CC)S(=O)(=O)c1ccc(C)c(NC(=O)Cn2cnc3cc([N+](=O)[O-])ccc3c2=O)c1", "38.9 µM (active)"],
  ["CCCC(=O)Nc1ncnc2c1ncn2[C@@H]1O[C@@H]2COP(=O)(O)O[C@H]2[C@H]1OC(=O)CCC", "0.774 µM (active)"],
  ["O=C(NCc1nnc2c(C(F)(F)F)cc(Cl)cn12)c1cccnc1", "inactive"],
  ["CC(=O)CCCCn1c(=O)c2c(ncn2C)n(C)c1=O", "inactive"],
  ["O=C(NC1CCCCCC1)c1cc2c(=O)n3ccccc3nc2s1", "34.6 µM (active)"],
  ["CN(Cc1ccccc1)C(=O)c1ccccc1NC(=O)c1ccco1", "inactive"],
  ["O=C(Nc1ccccc1C(=O)NCc1ccco1)c1ccco1", "inactive"],
  ["C=C[C@@]1(C)CC(=O)[C@]2(O)[C@@]3(C)[C@@H](O)CCC(C)(C)[C@@H]3[C@H](O)[C@H](OC(C)=O)[C@@]2(C)O1", "0.0388 µM (active)"]
]}

Request - read-out Potency | tested on Relaxin receptor 1 (Homo sapiens) | compound CN(C)c1ccc(C(=S)N2CCN(S(=O)(=O)c3ccccc3)CC2)cc1
inactive

Ok, now CCC(=O)Nc1ccc(-n2nnnc2SCC(=O)NNC(=O)c2ccco2)cc1
inactive

What about this compound? O=C(Nc1ccccc1C(=O)NCCc1ccccc1)c1ccco1
inactive

Please answer likewise for CC1C/C(=N\NC(N)=S)c2cc(Cl)ccc2S1 (centres undefined)
inactive

Try the compound CN1CCN(C(=O)CCc2nnc3ccc(N4CCC5(CC4)OCCO5)nn23)CC1
inactive

---

system_name: Relaxin receptor 1 (Homo sapiens)
assay_remarks: qHTS Assay for Agonists of the Relaxin Receptor RXFP1: RXFP1 Hit Validation; further: nearly all actives have a fitted effect of over 65% in size; further: potency means the concentration at half of the fitted maximal effect;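 on activation: cAMP rise lowers the TR-FRET signal in lysed cells with PDE4 inhibitor present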
test_parameters: HEK293T-RXFP1 cAMP TR-FRET, 30 min; series mostly up to 115 µM
Inconclusive results are not listed. Calls of active or inactive are those of the source. The call rests on the fitted dose curve; in most records, active means well fitted activation curve with a large enough effect; inconclusive means small, poorly fitted or top-dose-only effect; inactive means no such curve, though single readings can be large or run the other way.
measurement_label: Potency

Below: 5 molecules and their reported Potency.
{"columns": ["molecule", "Potency"],
 "data": [
  ["Cc1ccc(CN(C)C(=O)c2ccc3c(c2)NC(=O)CS3)o1", "inactive"],
  ["COC(=O)Cn1cnc2c(C#N)c3n(c2c1=O)CCCCC3", "13.8 µM (active)"],
  ["CCN(CC)C(=O)c1cc(Cl)ccc1NC(=O)c1ccco1", "inactive"],
  ["CCc1cc2c(=O)nc3n(c2s1)Cc1ccccc1/C3=C(/O)c1cccc([N+](=O)[O-])c1", "5.3 µM (active)"],
  ["CC(NC(=O)c1ccccc1NC(=O)c1ccco1)C(=O)O (stereo not drawn)", "inactive"]
]}

Entry CCOc1ccc2cc(C#N)c(SCC(=O)NC(C)CC)nc2c1 (stereo not drawn) : reported Potency = ?
4.88 µM (active)

Another molecule: Cc1cccc(N2C(=O)C(O)=C(C(=O)c3cccs3)C2c2ccc(C(C)C)cc2)n1 (stereo not drawn)
inactive

Try the molecule O=C(Nc1ccccc1C(=O)N1CCOCC1)c1ccco1
inactive

Next: Cc1cccc2cc(C#N)c(SCC(=O)NCc3cccs3)nc12
17.3 µM (active)

Then what about the molecule S=c1nc[nH]c2c1[nH]c1ccccc12 ?
6.9 µM (active)
